Below: a set of entries, each annotated with reported inhibition at 0.001 µM.
- assay_system: CYP17 (human testicular microsome) (Homo sapiens)
- Construct: using microsomal fraction from human testis (Celsis Cat #S00110) as the enzyme source; tissue Celsis S00110; host or cells: human testis microsomal fraction
- protocol_text: CYP17 enzymatic assay (% inhibition at 1 nM) (Biological Example 12)
- Format: biochemical
- experimental_parameters: compound at 1 nM, read-out: Biological Example No. 12: CYP17 enzymatic assay % inhibition at 1 nM

{"columns": ["compound", "inhibition at 0.001 µM"],
 "data": [
  ["C[C@]12CC[C@H](O)CC1=CCC1C2CC[C@]2(C)C(c3cncc(NS(=O)(=O)C(F)(F)F)c3)=CCC12 (some centres unmarked)", "< 10%"],
  ["CC1=C2CCC3C(CC[C@]4(C)C(c5cccnc5)=CCC34)[C@@]2(C)CC/C1=N\\O (some centres unmarked)", "10 to 50%"],
  ["C[C@]12CC[C@H]3[C@@H](CC4CC45C[C@@H](O)CC[C@]35C)[C@@H]1CC=C2c1cccnc1 (single isomer, unassigned)", "> 50%"],
  ["C[C@]12CCC(=O)C=C1C(n1nccn1)CC1C2CC[C@]2(C)C(c3cccnc3)=CCC12 (some centres unmarked)", "< 10%"],
  ["C[C@]12CCC3C(CCC4=CC(=O)NCC[C@@]43C)C1=CC=C2c1cncc(C(F)F)c1 (some centres unmarked)", "> 50%"],
  ["CC1CC2C3=CC=C(c4ccc(F)nc4)[C@@]3(C)CCC2[C@@]2(C)CCC(=O)C=C12 (some centres unmarked)", "10 to 50%"],
  ["C[C@]12CC[C@H]3[C@@H](CC=C4C[C@@H](OC(=O)Nc5cccnc5)CC[C@@]43C)C1=CC=C2c1cccnc1", "10 to 50%"],
  ["C[C@]12CCC(=O)CC1C(=O)CC1C2CC[C@]2(C)C(c3cncc(F)c3)=CCC12 (some centres unmarked)", "> 50%"],
  ["CC1CC2C(CC[C@]3(C)C(c4cccnc4)=CCC23)[C@@]2(C)CCC(=NO)C=C12 (some centres unmarked)", "10 to 50%"],
  ["C[C@H]1C2CCC3C(CC[C@]4(C)C(c5cncc(C(F)F)c5)=CCC34)[C@@]2(C)CC[C@H]1O (some centres unmarked)", "< 10%"],
  ["CC1CC2C(CC[C@]3(C)C(c4cccnc4)=CCC23)[C@@]2(C)C=CC(=NO)C=C12 (some centres unmarked)", "10 to 50%"],
  ["C[C@]12CC[C@H](O)CC1=CCC1C2CC[C@]2(C)C(c3cncc(C#N)c3)=CCC12 (some centres unmarked)", "10 to 50%"],
  ["CN1C(=O)CC[C@@]2(C)C1=CC[C@@H]1[C@@H]2CC[C@]2(C)C(n3cncc3C#N)=CC[C@@H]12", "< 10%"],
  ["CC1CC2C(CC[C@]3(C)C(c4cccnc4)=CCC23)[C@@]2(C)CC[C@@](C)(O)CC12 (some centres unmarked)", "10 to 50%"]
]}

* * *

- assay_system: CYP17 (human testicular microsome) (Homo sapiens, UniProt P05093)
- Construct: using microsomal fraction from human testis (Celsis Cat #S00110) as the enzyme source; tissue Celsis S00110; host or cells: human testis microsomal fraction
- Sequence (P05093 1-508): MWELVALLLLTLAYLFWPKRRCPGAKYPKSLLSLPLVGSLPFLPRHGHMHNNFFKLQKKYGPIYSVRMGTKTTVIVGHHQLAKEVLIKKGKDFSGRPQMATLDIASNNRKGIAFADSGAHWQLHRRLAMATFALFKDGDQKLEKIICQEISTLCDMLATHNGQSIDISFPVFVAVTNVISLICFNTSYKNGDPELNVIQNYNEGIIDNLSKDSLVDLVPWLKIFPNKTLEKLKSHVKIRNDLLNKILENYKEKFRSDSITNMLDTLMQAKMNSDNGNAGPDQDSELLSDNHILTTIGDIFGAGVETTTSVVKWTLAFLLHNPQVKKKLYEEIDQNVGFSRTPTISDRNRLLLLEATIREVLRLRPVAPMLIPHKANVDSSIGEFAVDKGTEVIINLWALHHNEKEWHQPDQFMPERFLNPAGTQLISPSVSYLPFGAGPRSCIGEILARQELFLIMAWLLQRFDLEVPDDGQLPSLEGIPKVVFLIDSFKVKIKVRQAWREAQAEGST
- protocol_text: CYP17 enzymatic assay (IC50) (Biological Example 4)
- Format: biochemical
- experimental_parameters: human testicular microsome, DHEA by ELISA; read-out: Biological Example No. 4: CYP17 enzymatic assay IC50
property_label: IC50

{"columns": ["molecule", "measured_result"],
 "data": [
  ["CC(=O)O[C@H]1CC[C@@]2(C)C(=CC[C@H]3C4=CC=C(n5ccnc5)[C@@]4(C)CC[C@@H]32)C1", "< 11 nM"],
  ["C[C@]12CCNC(=O)C[C@@H]1CC[C@@H]1[C@@H]2CC[C@]2(C)C(n3ccnn3)=CC[C@@H]12", "< 11 nM"],
  ["C[C@]12CCCC(=O)CC1=CCC1[C@@H]2CC[C@]2(C)C(n3ccnc3)=CC[C@@H]12 (stereo partly shown)", "< 11 nM"],
  ["C[C@]12CCOCC[C@@H]1CC[C@@H]1[C@@H]2CC[C@]2(C)C(c3cccnc3)=CC[C@@H]12", "< 11 nM"]
]}

Provenance of the data: patent US20130252930A1
